src = paper PMC8739956

assay: LC-MS/MS quantification of zanubrutinib in time-matched plasma and CSF samples of patients; format: in vivo, human; conditions: human, CSF/plasma, oral, 160 mg, not corrected for protein binding; read-out: CSF/plasma ratio
Result Type: Kp

Input `C=CC(=O)N1CCC([C@@H]2CCNc3c(C(N)=O)c(-c4ccc(Oc5ccccc5)cc4)nn32)CC1` , output reported Kp.
~0.02

====

experiment: LC-MS/MS quantification of zanubrutinib in time-matched plasma and CSF samples of patients; type: in vivo, human; settings: human, CSF/plasma, oral, 160 mg, corrected for 94% protein binding, entire series; read-out: Corrected CSF/plasma ratio, range
Result Type: Kp

Input `C=CC(=O)N1CCC([C@@H]2CCNc3c(C(N)=O)c(-c4ccc(Oc5ccccc5)cc4)nn32)CC1` , output reported Kp.
0.086 to 1.06
